system: MOLT-4 leukemia; assay: NCI tumour cell line growth inhibition, 48 h; in the data active = GI50 below about 0.43 µM; inactive = the rest
Outcomes: label 1 for active, label 0 for inactive

C/C(=N\NC(N)=S)c1nc2ccc(Cl)cc2[nH]1; label 0
NC(=O)c1ccc(C2C3=C(CCCC3=O)OC3=C2C(=O)c2ccccc2C3=O)cc1 (centres undefined); label 1
C[C@]12CC[C@@H]3c4ccc(O)cc4C(O)C[C@H]3[C@@H]1CCC2=O (some centres undefined); label 0
O=C1CC(=O)OC(c2ccc([N+](=O)[O-])cc2)O1; label 0
Cc1ccc(NC(=O)Cn2c(Br)nc3c2c(=O)n(C)c(=O)n3C)cc1; label 0
CCCCCCN(CCCCCC)CC(O)c1ccc2c3c(cccc13)CC2 (centres undefined); label 0
CN[C@@H]1C[C@H]2O[C@@](C)([C@@H]1OC)n1c3ccccc3c3c4c(c5c6ccccc6n2c5c31)C(=O)N[C@@H]4O; label 1
O=C([CH-]C(=O)C(F)(F)F)c1ccccc1.O=C([CH-]C(=O)C(F)(F)F)c1ccccc1.O=C([CH-]C(=O)C(F)(F)F)c1ccccc1.O=C([CH-]C(=O)C(F)(F)F)c1ccccc1.[Eu+3].c1ccncc1; label 0
COC(=O)C1=C(C(=O)OC)SC(=C(Cl)C(=S)Sc2ccccc2N)S1; label 0

----------
tested on: DU-145 prostate; assay: NCI tumour cell line growth inhibition, 48 h
Here, each record is paired with measured GI50 data.
Value Kind: GI50

CC(C)(C)NC(=O)[C@H]1C[C@H]2CCCC[C@H]2CN1C[C@@H](O)[C@H](Cc1ccccc1)NC(=O)[C@H](CC(N)=O)NC(=O)c1ccc2ccccc2n1; 1.78 µM
O=C1CC(=O)OC(c2ccc([N+](=O)[O-])cc2)O1; 1.63 µM
Oc1ccccc1-c1nc2c3ccccc3c3ccccc3c2[nH]1; 13.6 µM
COc1cc(Cn2c(-c3nonc3N)nc3ccccc32)ccc1C; 0.605 µM
CCN(CCNc1ccc(C)c2sc3ccccc3c(=O)c12)CC(C)(C)O; 15.4 µM

----------
test system: M14 melanoma; assay: NCI tumour cell line growth inhibition, 48 h
Value Kind: TGI

O=C1c2cccc3cccc(c23)C(=O)N1CCCNOCCONCCCN1C(=O)c2cccc3cccc(c23)C1=O; > 100 µM
O=C1CCCN1CC#CCN1CCCC1; > 100 µM
c1nnc(NCNc2nncs2)s1; > 100 µM
Cc1ccc(SC(=O)N2C(=S)NC(=NC3CCCCC3)C23CCCCC3)cc1; > 100 µM
Cn1c(=O)c2c(ncn2CN2CCN(Cn3cnc4c3c(=O)n(C)c(=O)n4C)CC2)n(C)c1=O; > 100 µM
CC(=O)c1cc2ccccc2n(O)c1=N; > 100 µM
CC(=O)c1cc2c(s1)C(=O)c1ccccc1C2=O; 10.8 µM
CCOC(=O)C(CS)NC(=O)CCCCCCCC(=O)NC(CS)C(=O)OCC (stereo unspecified); > 100 µM
Cc1ccc(N=Nc2c(C)c(C#N)c(=S)n(C3OC(CO)C(O)C(O)C3O)c2-c2ccccc2)cc1 (stereo unspecified); 30.4 µM
CN(Cc1cnc2nc(N)nc(N)c2n1)c1ccc(C(=O)NC(CCC(=O)NC(P(=O)(O)O)P(=O)(O)O)C(=O)O)cc1 (stereo unspecified); > 100 µM
O=C1/C(=C2\Sc3c(ccc(Cl)c3Cl)C2=O)Sc2c1ccc(Cl)c2Cl; > 100 µM

----------
system: HCC-2998 colon; test: NCI tumour cell line growth inhibition, 48 h
Here, each record is paired with measured TGI data.
Value Kind: TGI

O=[N+]([O-])c1ccc2c(c1)[O][Sn]([I])([I])[O]2; > 100 µM
Cc1ccc(-c2n[nH]c(=O)[nH]2)cc1[N+](=O)[O-]; > 100 µM
O=C1/C(=C2\Sc3c(ccc(Cl)c3Cl)C2=O)Sc2c1ccc(Cl)c2Cl; > 100 µM
CC(=O)OC1[C@H]2c3cc4c(cc3CN3CCC(=C[C@@H]1O)C23)OCO4 (stereo partly specified); > 100 µM
Cc1c(NC2(C)C(=O)N(/N=C/c3ccccc3)N=C2c2ccccc2)n[nH]c1-c1ccccc1 (stereo unspecified); > 100 µM
C#CCn1c(=O)c(C#N)c(O)c2cc3ccccc3nc21; > 100 µM
CC(C)(C)OC[C@H](O)CC#N; > 100 µM
Cc1c(Cl)cccc1NC(=O)CC1C(=O)Nc2ccccc2S1(=O)=O (stereo unspecified); 33.4 µM
C=C1C(=O)O[C@H]2C[C@@]3(C)[C@H](O)CCC(=C)[C@@H]3[C@@H](OC(C)=O)[C@H]12; 30.3 µM
Cn1cnc2c(sc3nc4ccccc4n32)c1=N; > 100 µM
COc1ccc2nc3cc(Cl)ccc3c(NCCNCCCNC(=O)c3cc(-c4ccccc4)nc4ccccc34)c2c1; > 100 µM
NC(=O)c1ccc(C2C3=C(CCCC3=O)OC3=C2C(=O)c2ccccc2C3=O)cc1 (stereo unspecified); 4.29 µM
Cc1c(-c2ccccc2)c(C#N)c2nnc(C(N)=O)c(N)n12; > 100 µM
Cc1ccc(NC(=O)Cn2c(Br)nc3c2c(=O)n(C)c(=O)n3C)cc1; 28.9 µM
COc1cc2c(cc1OC)-c1c3c(cc4c1[C@@H](C2)N(C)CC4)OCO3; 23.8 µM
O=c1[nH]nc(Cc2ccccc2)n1-n1cnnc1; > 100 µM
Cc1ccc(N=Nc2c(C)c(C#N)c(=S)n(C3OC(CO)C(O)C(O)C3O)c2-c2ccccc2)cc1 (stereo unspecified); > 100 µM
CC(=O)O[C@@H]1C2C(=O)OC(=O)C2C2CCC[C@]23O[C@H]13 (stereo partly specified); > 100 µM
Cc1cc(C)n(CN(Cn2nc(C)cc2C)C2CCCCC2)n1; 27.9 µM
COC(=O)c1c(-c2ccccc2)sc(-c2cccc3ccccc23)c1C(=O)OC; > 100 µM
COC(=O)c1nc(N)[nH]c(=O)c1CCCCCc1c(C(=O)OC)nc(N)[nH]c1=O; > 50 µM

----------
system: MDA-MB-231 breast; assay: NCI tumour cell line growth inhibition, 48 h; in the data active means GI50 below about 0.43 µM; inactive means the rest
Outcomes: active, inactive

Cc1c2ccc(N(C)c3ccnc(Nc4cccc(S(N)(=O)=O)c4)n3)cc2nn1C; inactive
Cc1cc(-c2nnc3n2CCCCC3)c(C)n1-c1ccc(Cl)c(Cl)c1; inactive
COc1cc(/C=C2/N=C(c3ccccc3)N(C3=NNC4(C(=O)N3)c3ccccc3-c3ccccc34)NC2=O)ccc1O; inactive
COc1ccc(C(=O)N2c3ccccc3Sc3ccccc32)c(C(F)(F)F)c1; inactive
CN(C)C(=O)O[C@@H]1CN[C@@H](C#Cc2cc3ncnc(Nc4ccc(OCc5cccc(F)c5)c(Cl)c4)c3s2)C1; inactive
CC(C)[C@H]1C(=O)N[C@@H](CCCN=C(N)N)C(=O)NCC(=O)N[C@@H](CC(=O)O)C(=O)N[C@H](Cc2ccccc2)C(=O)N1C; inactive
CCC(c1cccc(O)c1)C(CC)c1cccc(O)c1 (stereo not given); inactive
COc1ccc(C2CC(n3nnnc3-c3ccccc3)=NN2)cc1 (stereo not given); inactive
COc1ccc(-c2cn[nH]c2-c2cc(OC)c3c(c2)OCCO3)cc1; active
COC(=O)CCCCCN=Cc1c(O)c(O)c(C(C)C)c2cc(C)c(-c3c(C)cc4c(C(C)C)c(O)c(O)c(C=NCCCCCC(=O)OC)c4c3O)c(O)c12; inactive

----------
tested on: HCT-116 colon; test: NCI tumour cell line growth inhibition, 48 h
Here, each record is paired with measured TGI data.
Value Kind: TGI

CC(C)OP(=O)(OC(C)C)C(C(C)C)N(C)/C(F)=N/C(F)(F)F (stereo not given); > 100 µM
O=[N+]([O-])c1nccn1COCCBr; > 100 µM
C=CC[C@@]1(C(=O)OC)[C@H](Sc2ccccc2)C1(C)C; > 100 µM
COC(=O)C1(Cc2ccccc2)Cc2ccccc2C1; 49.8 µM
CCO/C(O)=C(/C(=N)N1CCCC1)C(=O)Nc1cccc(C(F)(F)F)c1; > 100 µM
COc1c(C)c(OC)c2c(c1O)[C@@H]1[C@@H]3Cc4c(OC)c(C)c(OC)c(O)c4[C@H](CNC(=O)c4cnc5ccccc5n4)N3[C@@H](C#N)[C@H](C2)N1C; > 0.1 µM
CN(C)C(=O)O[C@@H]1CN[C@@H](C#Cc2cc3ncnc(Nc4ccc(OCc5cccc(F)c5)c(Cl)c4)c3s2)C1; > 25 µM
NC(=O)c1ccc(C2C3=C(CCCC3=O)OC3=C2C(=O)c2ccccc2C3=O)cc1 (stereo not given); 0.76 µM
COC(=O)C1=C(CS(=O)c2ccccc2[N+](=O)[O-])ON(C)C1c1ccccc1 (stereo not given); > 100 µM
COc1cc(C2S/C(=C/c3ccccc3)C(=O)N2c2ccc(Cl)c(Cl)c2)cc(OC)c1OC (stereo not given); > 78.9 µM
CN(C)CCNc1ncnc2nc(-c3ccc4ccccc4c3)[nH]c12; > 100 µM
C=C=C(C(=O)OC)S(=O)c1ccc([N+](=O)[O-])cc1[N+](=O)[O-] (stereo not given); 50.3 µM
CC(C)N(C)C(=O)C12C3C4C1C1C2C3C41C#N (stereo not given); > 100 µM
CCCCOCn1c(=O)[nH]c(=O)c2cc(Br)ccc21; > 100 µM
COc1ccc(Cn2c(Cl)c(/C=C3/C(=O)Nc4ccccc43)c3cc(OC)c(C)cc32)cc1; 39.1 µM
C=C(C=O)CCCC(C)[C@@H]1CCC23CC12CCC1[C@@]2(C)CCC(OC(C)=O)C(C)(C)C2CC(OC2OC(COC(C)=O)C(O)C(O)C2O)[C@]13C (stereo not given in full); 1.43 µM
Nc1cc(N2CCCC2)nc(=O)n1Cc1ccccc1; > 100 µM
CC1(COS(=O)(=O)OCC2(C)COS(=O)(=O)OC2)COS(=O)(=O)OC1; > 100 µM
O=S1(=O)c2ccccc2NC(=S)CC1c1ccccc1 (stereo not given); > 100 µM
Cc1c2ccc(N(C)c3ccnc(Nc4cccc(S(N)(=O)=O)c4)n3)cc2nn1C; > 25 µM
Cn1c2ccccc2c2c3c(c4c5ccccc5n(C)c4c21)C(=O)c1ccccc1C3=O; > 100 µM
Cn1cnc2c(sc3nc4ccccc4n32)c1=N; > 100 µM
O=c1[nH]c(N/N=C\C(O)C(O)C(O)CO)nc2ccccc12 (stereo not given); > 100 µM
CC(=Nc1ccncc1)C(C)=Nc1ccncc1; 83.9 µM
O=c1oc2ccc(Cl)cc2cc1-c1cn2cc(Cl)ccc2n1; > 100 µM
O=C1C(Br)=C(c2ccccc2)S(=O)c2ccccc21 (stereo not given); 20.4 µM
Cc1c2c(OCCCCN3CCN(c4ncccn4)CC3)nn(C)c(=O)c2c(C)n1-c1ccccc1; 31.7 µM
CC(=O)Oc1ccc(C2COc3cc(OC(C)=O)c(OC(C)=O)cc3C2)cc1 (stereo not given); 33.9 µM
Cn1cc(CNCC2CCN(c3ncc(C(=O)NO)cn3)CC2)c2ccccc21; 0.0328 µM
COc1cccc(-c2cc(=O)c3ccc(C)nc3[nH]2)c1; > 38.1 µM
CCC(c1cccc(O)c1)C(CC)c1cccc(O)c1 (stereo not given); 14.5 µM
COc1ccc2nc3cc(Cl)ccc3c(NCCNCCCNC(=O)c3cc(-c4ccccc4)nc4ccccc34)c2c1; > 100 µM
Cc1cc(=O)oc2cc(O)ccc12; > 100 µM
O=[N+]([O-])c1ccc2c(c1)[O][Sn]([I])([I])[O]2; > 100 µM
CC(=O)O[C@H]1C(=O)[C@@]2(C)[C@H]([C@H](OC(=O)c3ccccc3)[C@]3(O)C[C@H](OC(=O)[C@H](O)[C@@H](NC(=O)CC(C)(C)C)c4ccccc4)C(C)=C1C3(C)C)C1(OC(C)=O)CO[C@@H]1C[C@@H]2O (stereo not given in full); > 3.34 µM
CCN(CC)C1CC(n2cc(C)c(=O)[nH]c2=O)OC1CO (stereo not given); > 100 µM
CCN1CSC(=S)N(CC)C1; > 100 µM
COc1cc(S(C)(=O)=O)ccc1Nc1nc2ccc(-c3ccc(NC(=O)[C@H](C)c4ccc(F)cc4)cc3)cn2n1; > 100 µM
COc1cc(Br)c(C=Nc2cccc3ccc(OS(=O)(=O)c4cccc([N+](=O)[O-])c4)cc23)cc1OC; > 100 µM
O=c1[nH]c2cc3[nH]c4ncccc4c(=O)c3cc2[nH]1; > 10 µM

Values from PubChem BioAssay (NCI)
